Source listed as ChEMBL document CHEMBL2028040.

# maps each entry to its IC50
Tested on: Leishmania infantum
Assay: MMV: Inhibition of Leishmania infantum (MHOM/MA/BE/67) in vitro.
Assay type: functional, organism-based
Metric: IC50

1) Cn1c(=O)c2cc(C(=O)NCCCN3CCCCCC3)sc2c2ccccc21	> 32 µM
2) CCCC(c1nnnn1C1CCCCC1)N1CCN(C(=O)c2ccco2)CC1 (stereo not drawn)	> 32 µM
3) CC(C)(C)CC(C)(C)NCC(O)COc1ccc(Cl)cc1Cl (stereo not drawn)	6.35 µM
4) COc1ccc(C2Sc3ccccc3N=C3C2=C(O)c2ccccc23)cc1 (stereo not drawn)	4.76 µM
5) CCOc1cc(Cl)c(C(C)NC(=O)c2ccccc2)cc1OCC (stereo not drawn)	> 32 µM
6) C=CC12CCN(CC1)C(C(O)c1ccnc3ccc(OC)cc13)C2 (stereo not drawn)	> 32 µM
7) Cc1ccc(F)cc1NC(=O)c1cc(Cl)ccc1Nc1ccccc1	> 32 µM
8) CC(C)CCNCC(O)Cn1c2ccccc2c2ccccc21 (stereo not drawn)	4 µM
9) O=C(NCC1Cc2cccc(-c3ccncc3)c2O1)c1csc2c1CCCC2 (stereo not drawn)	> 32 µM
10) CCCCCCc1cc2cc(-c3nc4ccccc4[nH]3)c(=Nc3ccccc3C)oc2cc1O	> 32 µM
11) CCOc1ccc(-c2nonc2NC(=O)c2cccc(C)c2)cc1OCC	> 32 µM
12) COc1ccc(Nc2nc(N/N=C/c3ccc(O)cc3)nc(Nc3ccc([N+](=O)[O-])cc3)n2)cc1	21.5 µM
13) O=C(Nc1ccc(N2CCN(Cc3ccccc3)CC2)cc1)c1cccs1	> 32 µM
14) CCOc1cc2c(cc1OCC)C(c1cc(OC)c(O)cc1Cl)NCC2 (stereo not drawn)	> 32 µM
15) COc1ccccc1N1CCN(C(CNS(=O)(=O)c2ccc(Cl)cc2)c2cccnc2)CC1 (stereo not drawn)	> 32 µM
16) OC1CCCCC1C1(NC(=S)Nc2ccccc2)CCCCC1 (stereo not drawn)	4.32 µM
17) Cc1sc(NC(=O)c2ccco2)c(C(c2cccnc2)N2CCC(Cc3ccccc3)CC2)c1C (stereo not drawn)	16.2 µM
18) Cc1ccc2c(C)nc(Nc3nc(C)cc(-c4ccccc4)n3)nc2c1	> 32 µM
19) COc1ccccc1C(=O)ON=C(N)Cc1cccc2ccccc12	> 32 µM
20) O=C(Nc1ccc(C23CC4CC(CC(c5ccccc5)(C4)C2)C3)cc1)c1cccs1	> 32 µM
21) CCOC(=O)c1cn(CC)c2cc(N3CCCCC3)c(F)cc2c1=O	> 32 µM
22) COc1ccc2c(c1)C1(Nc3ccccc3-c3nc4ccccc4n31)C(=O)N2 (stereo not drawn)	> 32 µM
23) Oc1ccccc1CNCC12CC3CC(CC(C3)C1)C2	17.3 µM
24) Cc1cc(C=C2SC(=Nc3ccccc3)N(C3CCCC3)C2=O)c(C)n1-c1ccc(Cl)cc1	25.4 µM
25) COc1cccc(C=Cc2nc(=O)c3ccccc3o2)c1OC	> 32 µM
26) CCCCOC(=O)c1ccc(Nc2cc(C)nc3ccc(OC)cc23)cc1	4.76 µM
27) COc1ccc(C(O)(CCC(C)C)C(CN2CCOCC2)c2ccc(Cl)cc2)cc1 (stereo not drawn)	4.76 µM
28) CN(C)c1ccc(N2C(N)=NC(N)=NC2(C)C)cc1	> 32 µM
29) CCOc1ccccc1CN1CCc2nc3cc(C(C)(C)C)nn3c(O)c2C1	> 32 µM
30) CC(=O)c1ccc(NC(=O)CSc2nc(-c3ccccc3Cl)ns2)cc1	> 32 µM
31) CCOc1ccc(CN2CCN(CC(O)COc3ccc(OCC(O)CN4CCN(Cc5ccc(OCC)cc5)CC4)cc3)CC2)cc1 (stereo not drawn)	2.52 µM
32) Cc1ccc(OCCCCCCNCCO)c(C)c1	16.1 µM
33) Nc1ccc(-c2nc3cc(Oc4ccc(Oc5ccc6[nH]c(-c7ccc(N)cc7)nc6c5)cc4)ccc3[nH]2)cc1	4.06 µM
34) N=c1n(CCN2CCCCC2)c2ccccc2n1CC(O)c1cccc(Br)c1 (stereo not drawn)	4 µM
35) Cc1ccc(N2C(=O)C3C(C2=O)C2(c4ccccc4)C(=O)C3(c3ccccc3)C(c3ccccc3)=C2c2ccccc2)cc1 (stereo not drawn)	> 32 µM
36) Cc1ccc(S(=O)(=O)c2c(COC(=O)c3cccc(C)c3)c(-c3ccccc3)nn2C)cc1	17.3 µM
37) COc1ccc(/C=C2/SC(=Nc3ccccc3)NC2=O)cc1	> 32 µM
38) COc1ccc(-c2nonc2NC(=O)c2cccc(Cl)c2)cc1OC	> 32 µM
39) CCN1CCN(c2cc(C)c3cc(NC(=O)c4ccc(OC)c(OC)c4)ccc3n2)CC1	6.35 µM
40) CC1CC(C)CN(C(=O)c2ccc(Cl)cc2Cl)C1 (stereo not drawn)	17.3 µM
41) COc1ccc2sc(N(Cc3cccnc3)C(=O)c3ccc(C#N)cc3)nc2c1	> 32 µM
42) COCCNC(=O)c1ccc(OC2CCN(Cc3ccc(F)c(F)c3)CC2)c(Cl)c1	> 32 µM
43) CN(C)c1ccc(C=Cc2nc(=O)c3ccccc3o2)cc1	> 32 µM
